TARGET: Carboxypeptidase A1 (Homo sapiens, UniProt P15085)
Sequence (P15085 whole entry): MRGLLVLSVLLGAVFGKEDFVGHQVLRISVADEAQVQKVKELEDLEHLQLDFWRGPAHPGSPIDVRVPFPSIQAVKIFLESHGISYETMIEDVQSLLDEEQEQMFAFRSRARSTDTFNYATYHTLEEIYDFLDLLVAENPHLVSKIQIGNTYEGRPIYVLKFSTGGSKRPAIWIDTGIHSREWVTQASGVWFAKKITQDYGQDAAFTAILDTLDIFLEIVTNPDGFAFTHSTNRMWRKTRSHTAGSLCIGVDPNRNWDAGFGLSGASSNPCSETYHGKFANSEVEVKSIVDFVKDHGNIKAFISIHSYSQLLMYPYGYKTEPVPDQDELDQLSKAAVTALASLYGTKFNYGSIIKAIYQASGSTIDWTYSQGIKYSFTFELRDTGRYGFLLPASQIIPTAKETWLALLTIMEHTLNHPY
RUN DESCRIPTION: Stability of compound assessed as carboxypeptidase A (unknown origin) mediated compound degradation by measuring fold change of half-life by RP-HPLC analysis relative to BimBH312-mer peptide
Assay type: ADME
Square brackets hold non-standard residues; d marks the D form. Peptide text beside a SMILES is read from it. * marks the point of attachment. ξ: configuration not given here. C20 diacid = O=C(O)CCCCCCCCCCCCCCCCCCC(=O)*; C18 diacid = O=C(O)CCCCCCCCCCCCCCCCC(=O)*; Stearoyl = CCCCCCCCCCCCCCCCCC(=O)*; Palmitoyl = CCCCCCCCCCCCCCCC(=O)*; Myristoyl = CCCCCCCCCCCCCC(=O)*; ξR = N=C(N)NCCCC(N)C(=O)O
Kindly return true if reported fold change (FC) is no lower than 40; return false if it is lower.

COMPOUND	TARGET	CAT
CCCCCCCCCCCCCCCC(=O)N[C@H](C(=O)N[C@@H](C)C(=O)N[C@@H](CCC(N)=O)C(=O)N[C@@H](CCC(=O)O)C(=O)N[C@@H](CC(C)C)C(=O)N[C@@H](CCCNC(=N)N)C(=O)N[C@@H](CCCNC(=N)N)C(=O)N[C@H](C(=O)NCC(=O)N[C@@H](CC(=O)O)C(=O)N[C@@H](CCC(=O)O)C(=O)N[C@@H](Cc1ccccc1)C(=O)O)[C@@H](C)CC)[C@@H](C)CC (Palmitoyl-IAQELRRIGDEF-OH)	Carboxypeptidase A1 (Homo sapiens, UniProt P15085)	true
CC[C@H](C)[C@H](NC(=O)CCCCCCCCCCCCCCCCC(=O)O)C(=O)N[C@@H](C)C(=O)N[C@@H](CCC(N)=O)C(=O)N[C@@H](CCC(=O)O)C(=O)N[C@@H](CC(C)C)C(=O)N[C@@H](CCCNC(=N)N)C(=O)NC(CCCNC(=N)N)C(=O)N[C@H](C(=O)NCC(=O)N[C@@H](CC(=O)O)C(=O)N[C@@H](CCC(=O)O)C(=O)N[C@@H](Cc1ccccc1)C(=O)O)[C@@H](C)CC (stereo partly specified) ({C18 diacid}-IAQELR[ξR]IGDEF-OH)	Carboxypeptidase A1 (Homo sapiens, UniProt P15085)	true
CCCCCCCCCCCCCCCCCC(=O)N[C@H](C(=O)N[C@@H](C)C(=O)N[C@@H](CCC(N)=O)C(=O)N[C@@H](CCC(=O)O)C(=O)N[C@@H](CC(C)C)C(=O)N[C@@H](CCCNC(=N)N)C(=O)NC(CCCNC(=N)N)C(=O)N[C@H](C(=O)NCC(=O)N[C@@H](CC(=O)O)C(=O)N[C@@H](CCC(=O)O)C(=O)N[C@@H](Cc1ccccc1)C(=O)O)[C@@H](C)CC)[C@@H](C)CC (stereo partly specified) (Stearoyl-IAQELR[ξR]IGDEF-OH)	Carboxypeptidase A1 (Homo sapiens, UniProt P15085)	true
CC[C@H](C)[C@H](NC(=O)CCCCCCCCCCCCCCCCCCC(=O)O)C(=O)N[C@@H](C)C(=O)N[C@@H](CCC(N)=O)C(=O)N[C@@H](CCC(=O)O)C(=O)N[C@@H](CC(C)C)C(=O)N[C@@H](CCCNC(=N)N)C(=O)NC(CCCNC(=N)N)C(=O)N[C@H](C(=O)NCC(=O)N[C@@H](CC(=O)O)C(=O)N[C@@H](CCC(=O)O)C(=O)N[C@@H](Cc1ccccc1)C(=O)O)[C@@H](C)CC (stereo partly specified) ({C20 diacid}-IAQELR[ξR]IGDEF-OH)	Carboxypeptidase A1 (Homo sapiens, UniProt P15085)	false

In the following, a different compound is considered.
Query :: Is fold change (FC) at least 40? Consider CCCCCCCCCCCCCC(=O)N[C@H](C(=O)N[C@@H](C)C(=O)N[C@@H](CCC(N)=O)C(=O)N[C@@H](CCC(=O)O)C(=O)N[C@@H](CC(C)C)C(=O)N[C@@H](CCCNC(=N)N)C(=O)NC(CCCNC(=N)N)C(=O)N[C@H](C(=O)NCC(=O)N[C@@H](CC(=O)O)C(=O)N[C@@H](CCC(=O)O)C(=O)N[C@@H](Cc1ccccc1)C(=O)O)[C@@H](C)CC)[C@@H](C)CC (stereo partly specified) (Myristoyl-IAQELR[ξR]IGDEF-OH)
Result :: false

---

TARGET: UniProt:P18031
Sequence (P18031 whole entry): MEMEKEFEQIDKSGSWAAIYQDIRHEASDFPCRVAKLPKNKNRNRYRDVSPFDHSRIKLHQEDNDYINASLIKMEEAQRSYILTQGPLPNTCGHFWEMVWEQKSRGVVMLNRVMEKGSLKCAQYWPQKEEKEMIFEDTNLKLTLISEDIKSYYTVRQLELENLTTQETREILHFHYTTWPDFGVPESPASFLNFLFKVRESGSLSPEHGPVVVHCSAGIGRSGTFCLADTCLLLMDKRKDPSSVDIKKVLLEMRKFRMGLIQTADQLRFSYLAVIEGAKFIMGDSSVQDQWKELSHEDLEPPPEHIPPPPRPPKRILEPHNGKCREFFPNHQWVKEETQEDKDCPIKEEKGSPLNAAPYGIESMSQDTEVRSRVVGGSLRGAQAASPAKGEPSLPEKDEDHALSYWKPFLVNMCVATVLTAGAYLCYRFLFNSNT
RUN DESCRIPTION: Inhibition of N-terminal His tagged recombinant human PTP1B expressed in Escherichia coli using pNPP as substrate assessed as substrate hydrolysis
Square brackets hold non-standard residues; d marks the D form. Peptide text beside a SMILES is read from it. * marks the point of attachment. ξ: configuration not given here. C19 diacid = O=C(O)CCCCCCCCCCCCCCCCCC(=O)*; C16 diacid = O=C(O)CCCCCCCCCCCCCCC(=O)*; Nonadecanoyl = CCCCCCCCCCCCCCCCCCC(=O)*; Arachidoyl = CCCCCCCCCCCCCCCCCCCC(=O)*; Stearoyl = CCCCCCCCCCCCCCCCCC(=O)*; Tridecanoyl = CCCCCCCCCCCCC(=O)*; ξR = N=C(N)NCCCC(N)C(=O)O
VALUE KIND: IC50 (nM)
Supply the numeric figure in nM, leaving out any unit text.

Worked cases, answers included:
COMPOUND	TARGET	IC50 / nM
CCCCCCCCCCCCCCCCCCCC(=O)N[C@H](C(=O)N[C@@H](C)C(=O)N[C@@H](CCC(N)=O)C(=O)N[C@@H](CCC(=O)O)C(=O)N[C@@H](CC(C)C)C(=O)N[C@@H](CCCNC(=N)N)C(=O)NC(CCCNC(=N)N)C(=O)N[C@H](C(=O)NCC(=O)N[C@@H](CC(=O)O)C(=O)N[C@@H](CCC(=O)O)C(=O)N[C@@H](Cc1ccccc1)C(=O)O)[C@@H](C)CC)[C@@H](C)CC (stereo partly specified) (Arachidoyl-IAQELR[ξR]IGDEF-OH)	UniProt:P18031	3890
CCCCCCCCCCCCCCCCCC(=O)N[C@H](C(=O)N[C@@H](C)C(=O)N[C@@H](CCC(N)=O)C(=O)N[C@@H](CCC(=O)O)C(=O)N[C@@H](CC(C)C)C(=O)N[C@@H](CCCNC(=N)N)C(=O)NC(CCCNC(=N)N)C(=O)N[C@H](C(=O)NCC(=O)N[C@@H](CC(=O)O)C(=O)N[C@@H](CCC(=O)O)C(=O)N[C@@H](Cc1ccccc1)C(=O)O)[C@@H](C)CC)[C@@H](C)CC (stereo partly specified) (Stearoyl-IAQELR[ξR]IGDEF-OH)	UniProt:P18031	120
CC[C@H](C)[C@H](NC(=O)CCCCCCCCCCCCCCC(=O)O)C(=O)N[C@@H](C)C(=O)N[C@@H](CCC(N)=O)C(=O)N[C@@H](CCC(=O)O)C(=O)N[C@@H](CC(C)C)C(=O)N[C@@H](CCCNC(=N)N)C(=O)N[C@@H](CCCNC(=N)N)C(=O)N[C@H](C(=O)NCC(=O)N[C@@H](CC(=O)O)C(=O)N[C@@H](CCC(=O)O)C(=O)N[C@@H](Cc1ccccc1)C(=O)O)[C@@H](C)CC ({C16 diacid}-IAQELRRIGDEF-OH)	UniProt:P18031	2880
CCCCCCCCCCCCC(=O)N[C@H](C(=O)N[C@@H](C)C(=O)N[C@@H](CCC(N)=O)C(=O)N[C@@H](CCC(=O)O)C(=O)N[C@@H](CC(C)C)C(=O)N[C@@H](CCCNC(=N)N)C(=O)N[C@@H](CCCNC(=N)N)C(=O)N[C@H](C(=O)NCC(=O)N[C@@H](CC(=O)O)C(=O)N[C@@H](CCC(=O)O)C(=O)N[C@@H](Cc1ccccc1)C(=O)O)[C@@H](C)CC)[C@@H](C)CC (Tridecanoyl-IAQELRRIGDEF-OH)	UniProt:P18031	835
CCCCCCCCCCCCCCCCCCC(=O)N[C@H](C(=O)N[C@@H](C)C(=O)N[C@@H](CCC(N)=O)C(=O)N[C@@H](CCC(=O)O)C(=O)N[C@@H](CC(C)C)C(=O)N[C@@H](CCCNC(=N)N)C(=O)NC(CCCNC(=N)N)C(=O)N[C@H](C(=O)NCC(=O)N[C@@H](CC(=O)O)C(=O)N[C@@H](CCC(=O)O)C(=O)N[C@@H](Cc1ccccc1)C(=O)O)[C@@H](C)CC)[C@@H](C)CC (stereo partly specified) (Nonadecanoyl-IAQELR[ξR]IGDEF-OH)	UniProt:P18031	437

Shift focus to the following entry.
Query :: // returns reported IC50 for input CC[C@H](C)[C@H](NC(=O)CCCCCCCCCCCCCCCCCC(=O)O)C(=O)N[C@@H](C)C(=O)N[C@@H](CCC(N)=O)C(=O)N[C@@H](CCC(=O)O)C(=O)N[C@@H](CC(C)C)C(=O)N[C@@H](CCCNC(=N)N)C(=O)NC(CCCNC(=N)N)C(=O)N[C@H](C(=O)NCC(=O)N[C@@H](CC(=O)O)C(=O)N[C@@H](CCC(=O)O)C(=O)N[C@@H](Cc1ccccc1)C(=O)O)[C@@H](C)CC (stereo partly specified) ({C19 diacid}-IAQELR[ξR]IGDEF-OH)
Result :: 1270
